B1: Caulobacter ParB omega fusion; a variant is named by its letters at X, in order, B8GW30 (parent)
chain: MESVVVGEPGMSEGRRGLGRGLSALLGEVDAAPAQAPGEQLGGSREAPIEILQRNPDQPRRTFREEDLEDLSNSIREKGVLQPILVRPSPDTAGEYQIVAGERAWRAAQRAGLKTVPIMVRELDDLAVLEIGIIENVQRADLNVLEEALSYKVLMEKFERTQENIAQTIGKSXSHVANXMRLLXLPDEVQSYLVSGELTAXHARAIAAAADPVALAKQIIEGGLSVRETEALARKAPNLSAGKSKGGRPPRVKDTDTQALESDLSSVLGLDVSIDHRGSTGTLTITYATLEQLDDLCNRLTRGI

Variants of: B1
assay_explanation: one-hybrid fitness for binding NBS DNA (the Noc-binding site; scaled: cognate 1, non-cognate 0); higher = stronger binding
run_conditions: with NBS DNA site
The full ranking holds about 81,000 sequences; the median of “one-hybrid fitness for binding NBS DNA” is about -0.1, and the highest 2% start at about 0.36. The list comes from a sample in which the highest values are over-represented; it also holds close analogues and randomly drawn sequences.
measurement_name: one-hybrid fitness for binding NBS DNA

TWCL | ≤ 0.2

QUERY: Write down one-hybrid fitness for binding NBS DNA measured for item RTKN
RESULT: 0.3

QUERY: Determine its reported one-hybrid fitness for binding NBS DNA: RCKG
RESULT: ≤ 0.2

QUERY: Provide one-hybrid fitness for binding NBS DNA value for the following variant: QPHH
RESULT: ≤ 0.2

QUERY: Annotate the variant RINS with its measured one-hybrid fitness for binding NBS DNA.
RESULT: 0.445
